Item-by-item account of TGI
Test system: MDA-MB-435
Experiment: NCI tumour cell line growth inhibition, 48 h

{"COMPOUND": "CCN(CC)C(=S)SNCc1ccc(S(N)(=O)=O)cc1", "MEASUREMENT_QUALIFIER": ">", "TGI (µM)": 50.9}
{"COMPOUND": "COc1cc(C2c3cc4c(cc3OC(Nc3ccccc3)C2C)OCO4)cc(OC)c1OC (centres undefined)", "MEASUREMENT_QUALIFIER": "=", "TGI (µM)": 0.527}
{"COMPOUND": "C=CCC(C(=O)O)c1ccccc1 (centres undefined)", "MEASUREMENT_QUALIFIER": ">", "TGI (µM)": 100}
{"COMPOUND": "COC(=O)C1=C(\\c2ccccc2)c2ccccc2C(=O)N(C2CCCCC2)/C=C\\1", "MEASUREMENT_QUALIFIER": "=", "TGI (µM)": 45.1}
{"COMPOUND": "COc1ccc2c(c1)OC1=C(C(=O)OC1)C2c1cc(OC)c(OC)c(OC)c1 (centres undefined)", "MEASUREMENT_QUALIFIER": "=", "TGI (µM)": 0.358}
{"COMPOUND": "COc1cc2c(cc1OCCCCCCN1CCN(c3ncnc4ccccc34)CC1)N=CC1CCCN1C2=O (centres undefined)", "MEASUREMENT_QUALIFIER": "=", "TGI (µM)": 0.252}
{"COMPOUND": "CCOc1ccc(Nc2nc(-c3ccc4c(c3)NC(=O)CO4)cs2)cc1", "MEASUREMENT_QUALIFIER": "=", "TGI (µM)": 11.3}
{"COMPOUND": "Cc1cc(NCCCCCCCCCC[n+]2c(C)cc(N)c3ccccc32)c2ccccc2n1", "MEASUREMENT_QUALIFIER": "=", "TGI (µM)": 5.86}
{"COMPOUND": "CC1=C(C(=O)NCCc2ccccc2)CC(C(=O)NCCc2ccccc2)=C(C)N1", "MEASUREMENT_QUALIFIER": ">", "TGI (µM)": 100}
{"COMPOUND": "Cc1occc1C(=S)Nc1ccc(Cl)c(/C=N/OC(C)C)c1", "MEASUREMENT_QUALIFIER": "=", "TGI (µM)": 31}
{"COMPOUND": "COc1cccc2c(Nc3ccc(S(=O)(=O)NC(C)=O)cc3)c3ccc([N+](=O)[O-])cc3nc12", "MEASUREMENT_QUALIFIER": ">", "TGI (µM)": 65.2}
{"COMPOUND": "O=S(=O)(c1ccc(N=C2NN=C(c3c[nH]c4ccccc34)CS2)cc1)N1CCOCC1", "MEASUREMENT_QUALIFIER": ">", "TGI (µM)": 100}
{"COMPOUND": "O=c1c2cccnc2cc(-c2ccccc2)n1CCO", "MEASUREMENT_QUALIFIER": ">", "TGI (µM)": 100}
